# measurement-target: P2X7 (Homo sapiens (Human))
# test-summary: P2X7 antagonism in human PBMCs (LPS + Bz-ATP induced IL-1β release, ELISA)
# Assay type: cell-based
# reported-conditions: compound 10 μM, LPS 30 ng/ml, Bz-ATP 0.5 mM
measure-name: PBMC 10 μM (% control)

molecule	PBMC 10 μM (% control)
C[C@H]1Cc2c(nnn2-c2ccn[nH]2)[C@H](C)N1C(=O)c1cccc(C(F)(F)F)c1Cl	−6.8
Cc1ccnc(-n2nnc3c2CCN(C(=O)c2cccc(C(F)(F)F)c2Cl)[C@@H]3C)c1 (single isomer, unassigned)	−3.7

a = CC1Cc2c(-c3ccn[nH]3)n[nH]c2CN1C(=O)c1ccc(Cl)cc1Cl (stereo not shown)
b = CC1c2nnn(-c3cnccn3)c2CCN1C(=O)c1ccc(Cl)cc1F (stereo not shown)
c = O=C(c1cccc(C(F)(F)F)c1Cl)N1CCc2c(nc(C(F)(F)F)n2-c2ccccc2)C1
d = O=C(c1cccc(C(F)(F)F)c1Cl)N1CCc2c(-c3cncc(F)c3)n[nH]c2C1
e = C[C@H]1Cc2c(nnn2-c2ncccc2F)CN1C(=O)c1cccc(Cl)c1Cl (single isomer, unassigned)
Task: Which order do these items take when sorted by rising PBMC 10 μM (% control)? List them. Answer by naming the labels in the order asked.
Result: a, b, c, e, d

---

# measurement-target: P2X7 (Homo sapiens (Human))
# test-summary: P2X7 antagonism in human PBMCs (LPS + Bz-ATP induced IL-1β release, ELISA)
# Type: cell-based
# reported-conditions: compound 1 μM, LPS 30 ng/ml, Bz-ATP 0.5 mM
Structures can show the parent of a compound that is named as a salt.
measure-name: PBMC 1 μM (% control)

// below: answered compounds
compound	PBMC 1 μM (% control)
CC1c2ncn(-c3ccccc3)c2CCN1C(=O)c1cccc(C(F)(F)F)c1Cl (centres unmarked)	11.2
Cn1nc2c(c1-c1cccnc1)CCN(C(=O)c1cccc(Cl)c1Cl)C2	15.7
Cn1nc2c(c1-c1ccccn1)CCN(C(=O)c1cccc(C(F)(F)F)c1Cl)C2	2.8
CC1c2ncn(-c3cnccn3)c2CCN1C(=O)c1cccc(C(F)(F)F)c1F (centres unmarked)	12.8
O=C(c1cccc(C(F)(F)F)c1Cl)N1CCc2c(nnn2-c2ccccn2)C1	12.6

A = O=C(c1cccc(C(F)(F)F)c1Cl)N1CCc2ncn(-c3ccccn3)c2C1
B = CC1c2nnn(-c3cnccn3)c2CCN1C(=O)c1cccc(C(F)(F)F)c1Cl (centres unmarked)
C = O=C(c1cccc(C(F)(F)F)c1Cl)N1CCc2c(-c3ccccn3)n[nH]c2C1 [Example 93, TFA salt]
D = Cn1nc2c(c1-c1cccnc1)CCN(C(=O)c1cccc(C(F)(F)F)c1Cl)C2
E = Cn1nc(-c2cccnc2)c2c1CN(C(=O)c1cccc(C(F)(F)F)c1Cl)CC2
Task: Arrange the 5 compounds from largest to smallest PBMC 1 μM (% control). Answer by naming the labels in the order asked.
Result: A, D, C, B, E
(A: 83.1 % control, D: 24.7 % control, C: 9.0 % control, B: 4.3 % control, E: 1.1 % control)

A = COc1ccccc1-n1nnc2c1CCN(C(=O)c1cccc(C(F)(F)F)c1F)C2
B = O=C(c1cccc(C(F)(F)F)c1Cl)N1CCc2[nH]nnc2C1c1ccccc1 (centres unmarked)
C = CC1c2nnn(-c3ncccn3)c2C=CN1C(=O)c1cccc(C(F)(F)F)c1Cl (centres unmarked)
Task: Which order do these items take when sorted by rising PBMC 1 μM (% control)? List them. Answer by naming the labels in the order asked.
Result: C, B, A

P = CC1(C)c2ncn(-c3ccccc3)c2CCN1C(=O)c1cccc(C(F)(F)F)c1Cl
Q = O=C(OCC1c2ncn(-c3ccccc3)c2CCN1C(=O)c1cccc(C(F)(F)F)c1Cl)c1cccc(C(F)(F)F)c1Cl (centres unmarked)
Task: Given the two records P and Q , choose the one whose PBMC 1 μM (% control) value is lower. Answer by stating the label of the chosen item.
Result: Q

---

# measurement-target: P2X7 (Homo sapiens (Human))
# test-summary: P2X7 antagonism in human PBMCs (LPS + Bz-ATP induced IL-1β release, ELISA)
# Format: cell-based
# reported-conditions: compound 1 μM, LPS 30 ng/ml, Bz-ATP 0.5 mM
measure-name: PBMC 1 μM (% control)

// below: answered molecules
molecule	measurement-target	measurement-unit	PBMC 1 μM (% control)
CCOC(=O)C1c2ncn(-c3ccccn3)c2CCN1C(=O)c1cccc(C(F)(F)F)c1Cl (stereo not shown)	P2X7 (Homo sapiens (Human))	% control	2.9
O=C(c1c(Cl)cccc1Cl)N1CCc2c(-c3ccccc3)n[nH]c2C1	P2X7 (Homo sapiens (Human))	% control	100.4
O=C(c1cccc(C(F)(F)F)c1Cl)N1C=Cc2c(ncn2-c2cnccn2)C1	P2X7 (Homo sapiens (Human))	% control	8.6

P = O=C(c1cccc(C(F)(F)F)c1Cl)N1CCc2c(-c3ccc(F)cc3)n[nH]c2C1
Q = CC1c2ncn(-c3cnccn3)c2C=CN1C(=O)c1cccc(C(F)(F)F)c1Cl (stereo not shown)
Task: Which numeric PBMC 1 μM (% control) is bigger, that of P or that of Q ? Answer by stating the label of the chosen item.
Result: Q

I = CCOC(=O)C1c2ncn(-c3ccccc3)c2CCN1C(=O)c1cccc(C(F)(F)F)c1Cl (stereo not shown)
II = O=C(c1cccc(C(F)(F)F)c1Cl)N1CCc2nc[nH]c2C1
Task: Which numeric PBMC 1 μM (% control) is bigger, that of I or that of II ? Answer by stating the label of the chosen item.
Result: II
(II: 90.1 % control, I: 14.0 % control)

---

# measurement-target: P2X7 (Homo sapiens (Human), UniProt Q99572)
# Sequence (Q99572 whole entry): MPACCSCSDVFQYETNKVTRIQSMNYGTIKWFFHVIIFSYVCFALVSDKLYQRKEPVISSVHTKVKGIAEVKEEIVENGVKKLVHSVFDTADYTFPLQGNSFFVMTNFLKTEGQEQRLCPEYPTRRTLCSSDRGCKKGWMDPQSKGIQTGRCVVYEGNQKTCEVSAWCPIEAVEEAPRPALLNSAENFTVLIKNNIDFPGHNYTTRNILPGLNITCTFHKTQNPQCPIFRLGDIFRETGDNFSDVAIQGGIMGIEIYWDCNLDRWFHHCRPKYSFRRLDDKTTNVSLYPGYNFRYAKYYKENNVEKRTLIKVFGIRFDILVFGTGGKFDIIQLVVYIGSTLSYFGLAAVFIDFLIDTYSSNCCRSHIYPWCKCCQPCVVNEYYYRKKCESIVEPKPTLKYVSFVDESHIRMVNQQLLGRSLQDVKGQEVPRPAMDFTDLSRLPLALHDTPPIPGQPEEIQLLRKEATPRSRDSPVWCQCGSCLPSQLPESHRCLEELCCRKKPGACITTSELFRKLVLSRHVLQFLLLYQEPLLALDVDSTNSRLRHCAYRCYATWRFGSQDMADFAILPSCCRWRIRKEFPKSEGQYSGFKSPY
# test-summary: P2X7 antagonism in human PBMCs (LPS + Bz-ATP induced IL-1β release, ELISA)
# Format: cell-based
# reported-conditions: compound 10 μM, LPS 30 ng/ml, Bz-ATP 0.5 mM
measure-name: PBMC 10 μM (% control)

molecule	measurement-unit	PBMC 10 μM (% control)
O=C(c1cccc(Cl)c1Cl)N1CCc2c(-c3ccncc3)n[nH]c2C1 [Example 115]	% control	−3.3
CC1c2nnn(-c3cncnc3)c2CCN1C(=O)c1cccc(C(F)(F)F)c1Cl (stereo not shown) [Example 177]	% control	8.6

a = O=C(c1cccc(Cl)c1Cl)N1CCc2c(ncn2-c2ccn[nH]2)C1 [Example 60]
b = O=C(c1ccc(Cl)cc1F)N1CCc2c(nnn2-c2cnccn2)C1 [Example 272]
c = C[C@@H]1Cc2c(nnn2-c2cnccn2)CN1C(=O)c1cccc(C(F)(F)F)c1Cl (single isomer, unassigned) [Example 211]
d = C[C@@H]1c2nnn(-c3cc[nH]n3)c2CCN1C(=O)c1cccc(C(F)(F)F)c1Cl (single isomer, unassigned) [Example 133]
e = Cc1nc(-n2nnc3c2CCN(C(=O)c2cccc(C(F)(F)F)c2Cl)[C@@H]3C)ncc1F (single isomer, unassigned) [Example 305]
Task: Which order do these items take when sorted by rising PBMC 10 μM (% control)? List them. Answer by naming the labels in the order asked.
Result: b, d, e, a, c

---

# measurement-target: P2X7 (Homo sapiens (Human), UniProt Q99572)
# test-summary: P2X7 antagonism in human PBMCs (LPS + Bz-ATP induced IL-1β release, ELISA);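 note: PBMCs from donor human blood, with a further 1.5 h incubation of the cells in the assay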
# Assay type: cell-based
# reported-conditions: compound 10 μM, LPS 30 ng/ml, Bz-ATP 0.5 mM
measure-name: PBMC 10 μM (% control)

compound	PBMC 10 μM (% control)
Cc1nc(-n2nnc3c2CCN(C(=O)c2cccc(C(F)(F)F)c2Cl)C3C)ncc1F (stereo not drawn) [Example 230]	2.9
CC1c2nnn(-c3ncccn3)c2CCN1C(=O)c1cccc(C(F)(F)F)c1Cl (stereo not drawn) [Example 80]	4.6
CC1c2nnn(-c3ncco3)c2CCN1C(=O)c1cccc(C(F)(F)F)c1Cl (stereo not drawn) [Example 250]	−1.3
C[C@H]1c2ncn(-c3ccccn3)c2CCN1C(=O)c1cccc(Cl)c1Cl (single isomer, unassigned) [Example 191]	5.2
Cc1ccc(-n2nnc3c2CCN(C(=O)c2cccc(C(F)(F)F)c2Cl)[C@@H]3C)nc1 (single isomer, unassigned) [Example 255]	−5.5
C[C@H]1c2ncn(-c3ccccn3)c2CCN1C(=O)c1cccc(C(F)(F)F)c1F (single isomer, unassigned) [Example 43]	77.8

a = O=C(c1cccc(C(F)(F)F)c1Cl)N1CCc2c(ncn2-c2ccc(F)cn2)C1 [Example 315]
b = C[C@@H]1c2nnn(-c3ccccn3)c2CCN1C(=O)c1ccc(F)c(Cl)c1Cl (single isomer, unassigned) [Example 141]
Task: Which numeric PBMC 10 μM (% control) is bigger, that of a or that of b ? Answer by stating the label of the chosen item.
Result: b

---

P2X7 (Homo sapiens (Human)): reported Ki for various molecules.
measure-name: Ki (nM)

a = CC1Cc2c(nnn2-c2ncc(F)cn2)CN1C(=O)c1ccc(Cl)c(F)c1Cl (centres unmarked) [Example 216]
b = Cc1nc2c(n1-c1ccccc1)CCN(C(=O)c1cccc(Cl)c1Cl)C2 [Example 331]
Task: Given the two records a and b , choose the one whose Ki value is lower. Answer by stating the label of the chosen item.
Result: a

1 = Cc1ccnc(-n2nnc3c2CCN(C(=O)c2cccc(C(F)(F)F)c2Cl)[C@@H]3C)n1 [Example 235]
2 = O=C(c1cccc(Cl)c1Cl)N1CCc2c(ncn2-c2ccn[nH]2)C1 [Example 60]
Task: Which numeric Ki is bigger, that of 1 or that of 2 ? Answer by stating the label of the chosen item.
Result: 2

P = CC1Cc2c(nnn2-c2ccc(F)cc2)C(C)N1C(=O)c1cccc(Cl)c1Cl (centres unmarked) [Example 242]
Q = O=C(c1ccc(Cl)cc1F)N1CCc2c(nnn2-c2cnccn2)C1 [Example 272]
Task: Which numeric Ki is bigger, that of P or that of Q ? Answer by stating the label of the chosen item.
Result: Q
(Q: 100 nM, P: 25.1 nM)

I = O=C(c1cccc(C(F)(F)F)c1F)N1CCc2c(ncn2-c2ccn[nH]2)C1 [Example 59]
II = O=C(C1c2ncn(-c3ccccn3)c2CCN1C(=O)c1cccc(C(F)(F)F)c1Cl)N1CCC1 (centres unmarked) [Example 35]
Task: Given the two records I and II , choose the one whose Ki value is lower. Answer by stating the label of the chosen item.
Result: II

P = Cn1nc2c(c1-c1ccccn1)CCN(C(=O)c1cccc(C(F)(F)F)c1Cl)C2 [Example 92]
Q = CCOC(=O)C1c2ncn(-c3cnccn3)c2CCN1C(=O)c1cccc(Cl)c1Cl (centres unmarked) [Example 29]
R = Cc1c(C(=O)N2CCc3c(ncn3-c3ccc(F)cn3)C2C)cccc1C(F)(F)F (centres unmarked) [Example 263]
Task: Arrange the 3 molecules from largest to smallest Ki. Answer by naming the labels in the order asked.
Result: R, Q, P
(R: 55 nM, Q: 38 nM, P: 26.3 nM)

P = Cc1cc(C)nc(-n2nnc3c2CCN(C(=O)c2cccc(C(F)(F)F)c2Cl)C3C)c1 (centres unmarked) [Example 300]
Q = CC1c2nnn(-c3ncccn3)c2C=CN1C(=O)c1cccc(C(F)(F)F)c1Cl (centres unmarked) [Example 79]
R = CC1Cc2c(-c3ccn[nH]3)n[nH]c2CN1C(=O)c1cccc(C(F)(F)F)c1Cl (centres unmarked) [Example 267]
Task: Arrange the 3 molecules from largest to smallest Ki. Answer by naming the labels in the order asked.
Result: P, Q, R
(P: 398 nM, Q: 31.6 nM, R: 10 nM)

I = C[C@@H]1c2nnn(-c3ncccn3)c2CCN1C(=O)c1cccc(C(F)(F)F)c1F (single isomer, unassigned) [Example 271]
II = CC1c2nnn(-c3cnccn3)c2C=CN1C(=O)c1cccc(C(F)(F)F)c1Cl (centres unmarked) [Example 72]
Task: Given the two records I and II , choose the one whose Ki value is lower. Answer by stating the label of the chosen item.
Result: I
(I: 5.9 nM, II: 29.5 nM)
